Test system: SR leukemia
Assay: NCI tumour cell line growth inhibition, 48 h

>  <molecule>
CCCCCCCCCCCCCCCCP(=O)(O)OP(=O)(O)OCC1OC(n2ccc(N)nc2=O)C(O)C1O (stereo unspecified)

>  <target_entity>
SR leukemia

>  <TGI>
23.7 µM

$$$$
>  <molecule>
CN(C)c1ccc(-c2nc(-c3cc4c(ccc5ccccc54)oc3=O)cs2)cc1

>  <target_entity>
SR leukemia

>  <TGI>
> 100 µM

$$$$
>  <molecule>
C[C@@H](NC(=O)Cc1cc(F)cc(F)c1)C(=O)N[C@@]1(C)N=C(c2ccccc2)c2ccccc2N(C)C1=O

>  <target_entity>
SR leukemia

>  <TGI>
> 22.7 µM

$$$$
>  <molecule>
CN(C)CCCn1c2ccccc2c2cnccc21

>  <target_entity>
SR leukemia

>  <TGI>
43.4 µM

$$$$
>  <molecule>
Clc1ccc2c(Cl)ncnc2c1

>  <target_entity>
SR leukemia

>  <TGI>
> 100 µM

$$$$
>  <molecule>
O=C(c1cccs1)N(C(=S)N1CCN(c2ccccc2)CC1)c1ccccc1

>  <target_entity>
SR leukemia

>  <TGI>
> 100 µM

$$$$

###

System: OVCAR-8 ovarian
Assay: NCI tumour cell line growth inhibition, 48 h
Recorded TGI for the following molecules

>  <molecule>
Cc1cc(S(=O)(=O)Nc2n[nH]c(Nc3ccccc3)n2)c(S)cc1Cl

>  <target_entity>
OVCAR-8 ovarian

>  <TGI>
> 10 µM

$$$$
>  <molecule>
COC(=O)c1cc(Nc2ccc(O)c3c2C(=O)c2c([N+](=O)[O-])ccc(O)c2C3=O)cc(C(=O)OC)c1

>  <target_entity>
OVCAR-8 ovarian

>  <TGI>
> 100 µM

$$$$
>  <molecule>
Cc1ccc(S(=O)(=O)C(C#N)c2nc3ccccc3nc2-n2cccn2)cc1 (stereo not drawn)

>  <target_entity>
OVCAR-8 ovarian

>  <TGI>
> 100 µM

$$$$
>  <molecule>
COc1ccccc1C1C(C#N)=C(N)OC2=C1C(=O)CCC2 (stereo not drawn)

>  <target_entity>
OVCAR-8 ovarian

>  <TGI>
> 100 µM

$$$$
>  <molecule>
Nc1ncnc2occ(-c3ccc(NC(=O)Nc4cc(C(F)(F)F)cc(C(F)(F)F)c4)cc3)c12

>  <target_entity>
OVCAR-8 ovarian

>  <TGI>
7.11 µM

$$$$
>  <molecule>
O=C(c1ccccc1F)c1c(NCc2ccccc2)c(=O)c1=O

>  <target_entity>
OVCAR-8 ovarian

>  <TGI>
> 100 µM

$$$$
>  <molecule>
CC(C)(C)OC(=O)NC(Cc1ccccc1)C(=O)N[C@H]1c2ccsc2/C(=N/O)[C@H]1O (stereo partly drawn)

>  <target_entity>
OVCAR-8 ovarian

>  <TGI>
> 100 µM

$$$$
>  <molecule>
N#Cc1c(=O)c2cccnc2n2c1[nH]c1ccccc12

>  <target_entity>
OVCAR-8 ovarian

>  <TGI>
> 100 µM

$$$$
>  <molecule>
CC(C)c1ccc(/C=C(\NC(=O)c2ccccc2)c2nc3ccccc3[nH]2)cc1

>  <target_entity>
OVCAR-8 ovarian

>  <TGI>
86.9 µM

$$$$
>  <molecule>
CSc1c(C(C)=O)c(O)n(-c2ccc(Cl)cc2)c(=O)c1C#N

>  <target_entity>
OVCAR-8 ovarian

>  <TGI>
> 100 µM

$$$$
>  <molecule>
COc1cc2oc3ccccc3c(=O)c2cc1CSc1ccccc1N

>  <target_entity>
OVCAR-8 ovarian

>  <TGI>
> 100 µM

$$$$
>  <molecule>
Cc1cnc(Cl)nc1C(C#N)c1nc2ccccc2n1C (stereo not drawn)

>  <target_entity>
OVCAR-8 ovarian

>  <TGI>
> 100 µM

$$$$
>  <molecule>
O=C(C[C@@H]1NCCC[C@H]1O)Cn1cnc2cc(Br)c(Cl)cc2c1=O

>  <target_entity>
OVCAR-8 ovarian

>  <TGI>
0.125 µM

$$$$
>  <molecule>
CCOC(=O)c1[nH]c2c(c1C)-c1[nH]c(=O)c(S(=O)(=O)c3ccccc3)cc1SC2

>  <target_entity>
OVCAR-8 ovarian

>  <TGI>
> 100 µM

$$$$
>  <molecule>
Cc1ccc2c(c1)c(=O)c1c(NCCN(C)C)ccc3nnn2c31

>  <target_entity>
OVCAR-8 ovarian

>  <TGI>
17.7 µM

$$$$
>  <molecule>
N#Cc1c(N)c(-c2ccc(Cl)cc2)c(F)c2ccccc12

>  <target_entity>
OVCAR-8 ovarian

>  <TGI>
> 100 µM

$$$$
>  <molecule>
CCOP(=O)(OCC)/C(C#N)=C\c1cccc2ccccc12

>  <target_entity>
OVCAR-8 ovarian

>  <TGI>
> 100 µM

$$$$
>  <molecule>
CCOC(=O)CCC1(C(=O)OC)CCCC1=O (stereo not drawn)

>  <target_entity>
OVCAR-8 ovarian

>  <TGI>
> 100 µM

$$$$
